test system: Hese; experiment: plant injury after spraying emerged plants (Table D); type: in vivo; design: scale not given here; conditions: 5.6050 kg/ha
recorded-endpoint: plant injury rating, Hese
Format: numeric value only, no unit, no commentary.

Below: 4 compounds and their reported plant injury rating, Hese.
• COC(=O)c1c(OC)nc(C(F)(F)F)c(-c2nnc(C)o2)c1CC(C)C [Compound 103] = 3
• COC(=O)c1c(OC)nc(C(F)(F)Cl)c(C(=O)OC)c1CC(C)C [Compound 30] = 1
• COC(=O)c1c(OC)nc(C(F)(F)F)c(C(=O)Cl)c1CC1CC1 [Compound 113] = 1
• COC(=O)c1c(OC)nc(C(F)(F)F)c(C2=NCCCS2)c1CC(C)C [Compound 98] = 3

// moving on: another record for plant injury rating, Hese
Request: Please give the measured plant injury rating, Hese for this compound: COC(=O)c1c(OC)nc(C(F)(F)F)c(C(=O)n2ccc(F)n2)c1C1CCC1 [Compound 140]
Response: 3
